Assay: Solubility testing of solid forms in water, SGF, FaSSIF and FeSSIF media
Format: physicochemical
Conditions: SGF, pH of media 1.2, 37° C., 2 h
endpoint-name: Solubility (mg/mL) 2 h

Solved entries:
| compound | Solubility (mg/mL) 2 h |
| --- | --- |
| Cn1cncc1[C@@]1(N)c2ccc(C#N)c(c2)COc2cccc(c2)-c2cc(C#N)nc3ccc1cc23 [Form 1] | ~5.04 mg/mL |
| Cn1cncc1[C@@]1(N)c2ccc(C#N)c(c2)COc2cccc(c2)-c2cc(C#N)nc3ccc1cc23 [Amorphous free base] | ~5 mg/mL |
| Cn1cncc1[C@@]1(N)c2ccc(C#N)c(c2)COc2cccc(c2)-c2cc(C#N)nc3ccc1cc23 [Form 8] | ≥ 5 mg/mL |

Continue with the compound presented below.
The compound listed as Cn1cncc1[C@@]1(N)c2ccc(C#N)c(c2)COc2cccc(c2)-c2cc(C#N)nc3ccc1cc23 [Form 13] has a reported Solubility (mg/mL) 2 h of ~4.05 mg/mL

----------
Assay: Solubility testing of solid forms in water, SGF, FaSSIF and FeSSIF media
Assay type: physicochemical
Conditions: SGF, pH of media 1.2, 37° C., 24 h
Quick reference: Solubility (mg/mL) 24 h of the listed items.

Solved entries:
| compound | Solubility (mg/mL) 24 h |
| --- | --- |
| Cn1cncc1[C@@]1(N)c2ccc(C#N)c(c2)COc2cccc(c2)-c2cc(C#N)nc3ccc1cc23 [Amorphous free base] | ~5 mg/mL |
| Cn1cncc1[C@@]1(N)c2ccc(C#N)c(c2)COc2cccc(c2)-c2cc(C#N)nc3ccc1cc23 [Form 13] | ~4.12 mg/mL |
| Cn1cncc1[C@@]1(N)c2ccc(C#N)c(c2)COc2cccc(c2)-c2cc(C#N)nc3ccc1cc23 [Form 1] | ~3.67 mg/mL |

Continue with the compound presented below.
The compound listed as Cn1cncc1[C@@]1(N)c2ccc(C#N)c(c2)COc2cccc(c2)-c2cc(C#N)nc3ccc1cc23 [Form 8] has a reported Solubility (mg/mL) 24 h of ≥ 5 mg/mL

----------
Experiment: Solubility testing of solid forms in water, SGF, FaSSIF and FeSSIF media
Type: physicochemical
Conditions: FeSSIF, pH of media 5.0, 37° C., 2 h
endpoint-name: Solubility (mg/mL) 2 h

Solved entries:
| compound | Solubility (mg/mL) 2 h |
| --- | --- |
| Cn1cncc1[C@@]1(N)c2ccc(C#N)c(c2)COc2cccc(c2)-c2cc(C#N)nc3ccc1cc23 [Form 8] | ~1.26 mg/mL |
| Cn1cncc1[C@@]1(N)c2ccc(C#N)c(c2)COc2cccc(c2)-c2cc(C#N)nc3ccc1cc23 [Form 1] | ~0.31 mg/mL |
| Cn1cncc1[C@@]1(N)c2ccc(C#N)c(c2)COc2cccc(c2)-c2cc(C#N)nc3ccc1cc23 [Form 13] | ~0.82 mg/mL |

Continue with the compound presented below.
The compound listed as Cn1cncc1[C@@]1(N)c2ccc(C#N)c(c2)COc2cccc(c2)-c2cc(C#N)nc3ccc1cc23 [Amorphous free base] has a reported Solubility (mg/mL) 2 h of 1.22 mg/mL
